FYI, the data here is from the supplement of paper PMC11451515.

tested on: NOMO1; experiment: cell viability relative to DMSO control; higher = less cytotoxic; conditions: RPMI 5 mM glucose + 10% dialyzed FBS; 48 h; 0.000781 µM
Measured attribute: cell viability (%)
# unit: % | format: bare number

The compound identified as Oc1cc2c(cc1O)C1c3ccc(O)c(O)c3OCC1(O)C2 (stereo not drawn) registered its cell viability at 77.6

The compound identified as CCOc1cc(/C=C2/C(=O)N(c3ccccc3)N=C2C)cc(Cl)c1OCC(=O)OC registered its cell viability at 89.2

The compound identified as CN(C)/[N+]([O-])=N/Oc1cc(ON[N+](=O)N2CCN(C(=O)c3cc(Cc4n[nH]c(=O)c5ccccc45)ccc3F)CC2)c([N+](=O)[O-])cc1[N+](=O)[O-] registered its cell viability at 93.9

The compound identified as COC1=CC(=CC=C1)C2=CC=C(NC(=O)/C3=C(/CCC3)C(O)=O)C(=C2)F registered its cell viability at 115

The compound identified as CCc1ccc(C(=O)Nc2cc(CN3CCN(C)CC3)cc(C(F)(F)F)c2)cc1C#Cc1cnc2ccnn2c1 registered its cell viability at 115

The compound identified as C[N]1N=CC2=C1C=C(C(=C2)OC3=CC=C(NC(=O)\C4=C\C=C(\C)N(C4=O)C5=CC=C(F)C=C5)C=C3F)C6=C[NH]N=C6 registered its cell viability at 121

The compound identified as C[N+](C)(C)CC(=O)O.[Cl-] registered its cell viability at 68.8

The compound identified as CN1CCN(Cc2ccc(NC(=O)Nc3ccc(Oc4cc(NC(=O)C5CC5)ncn4)cc3)cc2C(F)(F)F)CC1 registered its cell viability at 106
